- Tested on: RAW264.7
- assay-notes: Cytotoxicity against mouse RAW264.7 cells at 1 to 10 uM for 24 hrs by MTT assay
- Format: cell-based
- condition-description: raw264.7, 24 h
readout-label: Activity

{"columns": ["molecular-string", "result"],
 "data": [
  ["COc1ccc(CCNCc2c(O)cc3c(c2O)C(=O)C[C@@H](c2ccc(OC)c(O)c2)O3)cc1", "Non-toxic"],
  ["CCN(CC)Cc1c(O)cc2c(c1O)C(=O)C[C@@H](c1ccc(OC)c(O)c1)O2", "Non-toxic"],
  ["COc1ccc([C@@H]2CC(=O)c3c(cc(O)c(CNC(C)C)c3O)O2)cc1O", "Non-toxic"]
]}

----------
- assay-notes: Octanol/water partition coefficient, logP of the compound by shake flask method
- Assay type: physicochemical
readout-label: logP
// print number alone

Fill in the blank: the reported logP of CCN1CCN(Cc2c(O)cc3c(c2O)C(=O)C[C@@H](c2ccc(OC)c(O)c2)O3)CC1 is ____.
-0.75

Fill in the blank: the reported logP of COc1ccc([C@@H]2CC(=O)c3c(cc(O)c(CN4CCN(CCO)CC4)c3O)O2)cc1O is ____.
1.15

Fill in the blank: the reported logP of COc1ccc([C@@H]2CC(=O)c3c(cc(O)c(CNCCc4ccc(Cl)cc4)c3O)O2)cc1O is ____.
1.77

Fill in the blank: the reported logP of COc1ccc([C@@H]2CC(=O)c3c(cc(O)c(CNC(C)C)c3O)O2)cc1O is ____.
-0.26
